Each recorded value in this set is attributed to ChEMBL document CHEMBL1138646.

- MEASURED TARGET: Carbonic anhydrase 9 (Homo sapiens)
pKi: −log10 of the molar value.
met means recorded pKi is 2 or above; not met means it is below 2.

| MOLECULE | ASSIGNED LABEL |
| --- | --- |
| Br [BROMIDE] | not met |
| F [FLUORIDE ION] | not met |
| N#CO [CYANATE] | met |
| Cl [HYDROCHLORIC ACID] | not met |
| O=[N+]([O-])O | not met |
| I [IODIDE] | met |
| O=C(O)O [BICARBONATE] | not met |
| S [HYDROGEN SULFIDE] | met |
| N#CS | met |

* * *

- MEASURED TARGET: Carbonic anhydrase 4 (Homo sapiens)
- Sequence (P22748 whole entry): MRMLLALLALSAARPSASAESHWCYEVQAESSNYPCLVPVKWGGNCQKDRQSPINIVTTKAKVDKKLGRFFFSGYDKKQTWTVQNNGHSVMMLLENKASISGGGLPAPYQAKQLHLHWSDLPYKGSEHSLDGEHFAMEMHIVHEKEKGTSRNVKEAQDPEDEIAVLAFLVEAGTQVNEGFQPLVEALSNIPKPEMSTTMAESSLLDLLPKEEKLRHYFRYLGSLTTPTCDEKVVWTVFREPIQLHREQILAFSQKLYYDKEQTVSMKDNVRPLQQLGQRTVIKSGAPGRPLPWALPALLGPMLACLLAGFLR
- PROTOCOL: Inhibition constant against human carbonic anhydrase isozyme hCA IV
Entries and their Ki values follow.
QUANTITY MEASURED: Ki (nM)

| COMPOUND | MEASURED TARGET | QUANTITY MEASURED | TEST VALUE |
| --- | --- | --- | --- |
| NS(=O)(=O)O [SULFAMATE] | Carbonic anhydrase 4 (Homo sapiens) | Ki | 930 |
| OB(O)c1ccccc1 [PHENYLBORONIC ACID] | Carbonic anhydrase 4 (Homo sapiens) | Ki | 880 |

* * *

- MEASURED TARGET: Carbonic anhydrase V (Homo sapiens, UniProt Q9Y2D0+P35218)
- Assay type: protein assay
- Description: Inhibition constant of anion against human carbonic anhydrase isozyme hCA V
QUANTITY MEASURED: Ki (mM)

| COMPOUND | UNIT STRING | TEST VALUE |
| --- | --- | --- |
| S [HYDROGEN SULFIDE] | mM | 0.02 |
| O=S(=O)(O)O | mM | 680 |
| I [IODIDE] | mM | 25 |
| O=[N+]([O-])O | mM | 16 |
| Cl [HYDROCHLORIC ACID] | mM | 156 |

* * *

As shown below, each of these molecules has a reported Ki value.
- MEASURED TARGET: Carbonic anhydrase V (Homo sapiens, UniProt Q9Y2D0+P35218)
- Assay type: protein assay
- EXPERIMENTAL CONDITIONS: read-out: Ki
QUANTITY MEASURED: Ki (mM)

| MOLECULE | QUANTITY MEASURED | UNIT STRING | TEST VALUE |
| --- | --- | --- | --- |
| N#CS [THIOCYANIC ACID] | Ki | mM | 0.74 |
| O=S(O)O [SULFUROUS ACID] | Ki | mM | 65 |
| F [FLUORIDE ION] | Ki | mM | 241 |
| Br [BROMIDE] | Ki | mM | 50 |
| N#CO [CYANATE] | Ki | mM | 0.02 |
| O=NO [NITROUS ACID] | Ki | mM | 16 |

* * *

- MEASURED TARGET: UniProt:P22748
pKi: −log10 of the molar value.
Values of pKi greater than or equal to 2 map to 1; values below map to -1.

| COMPOUND | ASSIGNED LABEL |
| --- | --- |
| N#CS | -1 |
| I [IODIDE] | 1 |
| Cl [HYDROCHLORIC ACID] | 1 |
| O=NO | -1 |
| O=[N+]([O-])O | -1 |
| S [HYDROGEN SULFIDE] | 1 |
| O=S(O)O | -1 |
| F [FLUORIDE ION] | 1 |
| N#CO [CYANATE] | 1 |
| Br [BROMIDE] | 1 |
